Listing: MIC of selected molecules
# System: Staphylococcus aureus ATCC 25923
# protocol summary: Minimal inhibitory concentration (MIC), turbidity method in peptone broth
# Type: cell-based
# condition info: ATCC25923; Staphylococcus aureus ATCC 25923; Pepton-Nährlösung, pH 7,0; read-out: MIC-Werte
Write the value in µg/mL as a bare number.

Look over these answered cases.
# structure smiles, units text, MIC
measured = [
    ("C[N+](C)(C)CCOC(=O)C12CC3CC(CC(C3)C1)C2", "µg/mL", 200),
    ("N=C(NCCCCCCNC(=N)NC(=N)Nc1ccc(Cl)cc1)NC(=N)Nc1ccc(Cl)cc1", "µg/mL", 1.56),
]

Now consider the entry below.
Task: Given "CCCCCCCCCCCCCCCC(=O)OCC[N+](C)(C)C" , state its recorded MIC.
Result: 2.5

====

# protocol summary: Hydrolysis in presence of pancreatic juice under simulated physiological conditions
# condition info: pancreatic juice
value kind: metabolised at 1 h (%)
Write the value in % as a bare number.

Task: Given CCCCCCCCCCCC(=O)OCC[N+](C)(C)C [Laurinsäurecholinesterchlorid] , state its recorded metabolised at 1 h.
Result: 1.5

====

# System: Fusorium oxysporum
# protocol summary: Minimal inhibitory concentration (MIC), turbidity method in peptone broth
# Type: cell-based
# condition info: Fusorium oxysporum; Pepton-Nährlösung, pH 7,0; read-out: MIC-Werte
value kind: MIC

Look over these answered cases.
# compound, tgt, result value
measured = [
    ("CC(=O)OCC[N+](C)(C)C [Essigsäurecholinesterchlorid]", "Fusorium oxysporum", "> 400 µg/mL"),
    ("C[N+](C)(C)CCOC(=O)C12CC3CC(CC(C3)C1)C2 [Adamantylcarbonsäurecholinesterchlorid]", "Fusorium oxysporum", "> 400 µg/mL"),
    ("N=C(NCCCCCCNC(=N)NC(=N)Nc1ccc(Cl)cc1)NC(=N)Nc1ccc(Cl)cc1 [Chlorhexidin-diacetat]", "Fusorium oxysporum", "12.5 µg/mL"),
    ("CCCCCCCCCCCCCCCC(=O)OCC[N+](C)(C)C [Palmitinsäurecholinesterchlorid]", "Fusorium oxysporum", "> 400 µg/mL"),
]

Now consider the entry below.
Task: Given CCCCCC(=O)OCC[N+](C)(C)C [Capronsäurecholinesterchlorid] , state its recorded MIC.
Result: > 400 µg/mL

====

# System: Candida albicans ATCC 10231
# protocol summary: Minimal inhibitory concentration (MIC), turbidity method in peptone broth
# Format: cell-based
# condition info: ATCC10231; Candida albicans ATCC 10231; Pepton-Nährlösung, pH 7,0; read-out: MIC-Werte
# From the text: Die antimikrobiellen Wirkungsspektren eines erfindungsgemäß vorgeschlagenen Wirkstoffes, nämlich des Laurinsäurecholinesterchlorids, und im Vergleich dazu von den homologen Essigsäure-, Capronsäure- und Palmitinsäurecholinesterchloriden sowie von den bekannten Konservierungsmitteln Adamantylcarbonsäurecholinesterchlorid und Chlor- 'hexidin-diacetat wurden durch Bestimmung der minimalen Hemmkonzentration nach der Trübungsmethode in Pepton-Nährlösung bei einem pH von 7,0 festgestellt. […]
value kind: MIC (µg/mL)
Write the value in µg/mL as a bare number.

# structure smiles, MIC (µg/mL)
rows = [
    ("CCCCCCCCCCCCCCCC(=O)OCC[N+](C)(C)C", 100),
]

Now consider the entry below.
Task: Given "N=C(NCCCCCCNC(=N)NC(=N)Nc1ccc(Cl)cc1)NC(=N)Nc1ccc(Cl)cc1" , state its recorded MIC.
Result: 3.13

====

# protocol summary: Acute oral toxicity test
# Design: species or system Mäuse
# condition info: mouse, in vivo, black mice, mean (range in brackets), read-out: oraler LD 50-Wert
value kind: LD50 (mg/kg)
Write the value in mg/kg as a bare number.

Task: Given "CCCCCCCCCCCC(=O)OCC[N+](C)(C)C" , state its recorded LD50.
Result: 3150

Entry source: patent EP0059980A1
